- experimental.details: Pharmacokinetics of 975 in CD-1 mice
- study.conditions: male, CD-1, mouse, in vivo, po, 100 mg/kg
quantity.measured: half-life (h)

>>> readout_value("Cn1nc(C(F)(F)F)cc1-c1ccc(OCc2ccc(Cl)cc2)c(-c2ccc(Cl)c(C(F)(F)F)c2)c1O")
7

====

- target.or.system: MYC353–439 (Homo sapiens, UniProt P01106)
- Sequence (P01106 368-454): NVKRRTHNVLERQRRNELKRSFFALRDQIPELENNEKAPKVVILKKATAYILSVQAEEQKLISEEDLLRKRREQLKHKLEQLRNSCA
pKd: −log10 of the molar value.
pKd values for the molecules below.
quantity.measured: pKd

>>> readout_value("Cn1nc(C(F)(F)F)cc1-c1ccc(OCc2ccc(Cl)cc2)c(-c2ccc(Cl)c(C(F)(F)F)c2)c1O [Compound 975]")
5.60
>>> readout_value("Cn1nc(C(F)(F)F)cc1-c1ccc(OCc2ccc(Cl)cc2)c(-c2cc(C(F)(F)F)cc(C(F)(F)F)c2)c1O [Compound 361]")
5.49
